Values were extracted from paper PMC12789660.

Target: QcrB subunit of CIII2 (CIII2CIV2 supercomplex) (Mycolicibacterium smegmatis)
Test: DMNQH2 oxidation:O2 reduction activity, Clark-type oxygen electrode
measurement.kind: IC50

- CCCCCCCCCCc1c(C)c(O)c(OC)c(OC)c1O: ~70 µM

----------
Target: QcrB subunit of CIII2 (CIII2CIV2 supercomplex), AAA variant (Mycolicibacterium smegmatis, UniProt A0R052, F153A/M305A/M337A)
Assay: biochemical
measurement.kind: IC50

* CCCCCCCCCCc1c(C)c(O)c(OC)c(OC)c1O | ~130 µM
